system: OVCAR-5 ovarian; test: NCI-60 one-dose screen, 48 h (100 = growth as untreated, 0 = no growth, -100 = all killed); conditions: 10 µM unless noted
The panel holds about 83,000 compounds, 20% with a hit somewhere; the sample as a whole holds those more often.
measured_parameter: growth (%)

substance_smiles=CN1CCC(n2cc(Nc3ncc4c(=O)n(-c5c(Cl)cccc5Cl)cc(Br)c4n3)cn2)CC1 system_name="OVCAR-5 ovarian" measured_parameter=growth value=43.5
substance_smiles=COc1ccc(N2CCN(C3=C(Cl)C(=O)C(C)=C(C)C3=O)CC2)cc1 system_name="OVCAR-5 ovarian" measured_parameter=growth value=110
substance_smiles=CC1(C)CC[C@]2(C(=O)N3CCOCC3)CC[C@]3(C)C(=CC[C@@H]4[C@@]5(C)C/C(=C/c6ccccn6)C(=O)C(C)(C)[C@@H]5CC[C@]43C)[C@@H]2C1 system_name="OVCAR-5 ovarian" measured_parameter=growth value=88.4
substance_smiles=COc1ccc(-c2cc(-c3ccc(Cl)cc3)c(C#N)c(=O)n2Cc2ccc(C(=O)O)cc2)cc1 system_name="OVCAR-5 ovarian" measured_parameter=growth value=105

----------
system: HCT-116 colon; assay: NCI-60 one-dose screen, 48 h (100 = growth as untreated, 0 = no growth, -100 = all killed); conditions: 10 µM unless noted
Compounds without any hit were thinned out: in the full panel of roughly 83,000, 20% have a hit.
measured_parameter: growth (%)

compound=Cn1ccnc1C(=O)/C=C/c1ccc(CNC(=O)c2ccc(Cl)cc2)cc1 measured_parameter=growth value=-1.09
compound=COc1ccc(C(=O)CSc2nc3c(c(Nc4ccc(S(N)(=O)=O)cc4)n2)CCCC3)cc1 measured_parameter=growth value=93
compound="COc1c(N2CC3CCCNC3C2)c(F)cc2c(=O)c(C(=O)N/N=C/c3ccc(Br)cc3)cn(C3CC3)c12 (centres undefined)" measured_parameter=growth value=50.5
compound=N#Cc1cnc2ccc(-c3cnc(N)nc3)cc2c1N1CCc2cc(F)c(Cl)cc21 measured_parameter=growth value=2.24
compound=CC1(C)[C@@H](O)CC[C@]2(C)[C@H]3CC[C@@H]4[C@H]5[C@H](C(=O)/C=C\c6ccncc6)CC[C@]5(O)CC[C@@]4(C)[C@]3(C)CC[C@@H]12 measured_parameter=growth value=14.9
compound=COc1ccc(N2CCN(C3=C(Cl)C(=O)C(C)=C(C)C3=O)CC2)cc1 measured_parameter=growth value=99.3
compound=O=C(CN1CCN(c2cc(=O)[nH]c3ccc(F)cc23)CC1)Nc1ccc(Cl)cc1 measured_parameter=growth value=57.6
compound=C[C@H]1c2[nH]c3ccccc3c2C[C@H]2C(=O)N(CCCCCCC(=O)NO)CC(=O)N21 measured_parameter=growth value=72.8
compound=Oc1cccc2ccc(-c3nnc(SCc4ccc(O)c5ncccc45)o3)nc12 measured_parameter=growth value=5.66

----------
System: CAKI-1 renal
Assay: NCI-60 one-dose screen, 48 h (100 = growth as untreated, 0 = no growth, -100 = all killed)
Settings: 10 µM unless noted
Description: Growth inhibition of the CAKI-1 human tumor cell line is measured as a screen for anti-cancer activity. Cells are grown in 96 well plates and exposed to the test compound for 48 hours. Compounds are tested at a single concentration, which is 10^-5 M for most compounds. The reported endpoint is percent growth (GI% or GIPRCNT), where numbers from 0 - 100% represent growth inhibition, and numbers from -100% - 0 represent cell death. For example, a value of 40 represents 60% growth inhibition. […]
Compounds without any hit were thinned out: in the full panel of roughly 83,000, 20% have a hit.
growth values by entry
measured_parameter: growth (%)

compound=C=C(C)[C@@H]1CC[C@]2(C(=O)NCCCCCN(CCC#N)CCC#N)CC[C@]3(C)[C@H](CC[C@@H]4[C@@]5(C)CCC(=O)C(C)(C)[C@@H]5CC[C@]43C)[C@@H]12 value=61.1
compound=O=S(=O)(NCCNc1nccc(-n2cnc3ccccc32)n1)c1ccc(C(F)(F)F)cc1 value=43.1
compound=NS(=O)(=O)c1ccc(Nc2nc(N/N=C/c3ccc(Cl)cc3)nc(Nc3ccccc3)n2)cc1 value=62.1
compound=CCCCNNC(=O)c1ccc(-c2cccc(F)c2F)cc1 value=30.9
compound=CC(C)(O)c1cncc(-c2ccc3ncnc(NCc4ccccc4)c3c2)c1 value=42.6
compound=O=S(=O)(NCCNc1nccc(-n2cnc3ccccc32)n1)c1ccc(Br)cc1 value=81.5
compound="O=S(=O)(NC1c2ccccc2C[C@H]1O)c1ccc(Cl)cc1Cl (stereo not given in full)" value=82.4
compound=CC(C)(C)c1ccc(-c2nnc(-c3nc4ccccc4nc3Cl)o2)cc1 value=89.2
compound=COc1cccc2c1CN(C(=O)c1ccc(O)c(C(=O)N3Cc4ccc(OCCC[P+](c5ccccc5)(c5ccccc5)c5ccccc5)cc4C3)c1)C2 value=82.3
compound="CNC1CCc2c(sc(NC(=O)c3ccc(C(C)(C)C)cc3)c2C(N)=O)C1 (stereo not given)" value=42.4

----------
tested on: HCT-15 colon; assay: NCI-60 one-dose screen, 48 h (100 = growth as untreated, 0 = no growth, -100 = all killed); settings: 10 µM unless noted
Compounds without any hit were thinned out: in the full panel of roughly 83,000, 20% have a hit.
I would appreciate it if you labelled entries 1.0 when growth is 40% or higher, otherwise 0.0.

substance_smiles=N/C(=N\C(N)=N\c1nc2ccccc2s1)c1ccncc1Cl answer_label=0.0
substance_smiles=Cc1cc(-c2ccc(Cl)cc2)n(Cc2nnc(SCC(=O)Nc3ccc(S(N)(=O)=O)cc3)n2-c2ccc([N+](=O)[O-])cc2)n1 answer_label=1.0
substance_smiles=COc1cc(-c2nc(-c3ccccc3)[nH]c2-c2ccnc(NCCCNS(=O)(=O)c3cccc(F)c3)n2)ccc1Cl answer_label=0.0
substance_smiles=Cc1ccc(-c2cc3nc(C(Cl)Cl)nc(C)n3n2)cc1 answer_label=1.0
substance_smiles=O=c1c2ccccc2nc(COc2ccccc2)n1NS(=O)(=O)c1ccc(Cl)cc1 answer_label=1.0
substance_smiles=Nc1ccccc1NC(=O)c1ccc(NC(=O)C/C=C/c2cccnc2)cn1 answer_label=0.0
substance_smiles=CC(=O)Nc1cccc(Nc2nc(N[C@@H](C)c3ccccc3)c3ccccc3n2)c1 answer_label=0.0
substance_smiles=Fc1ccc(-c2cc3nc(C(Cl)Cl)nc(-c4ccco4)n3n2)cc1 answer_label=0.0

----------
test system: SW-620 colon; assay: NCI-60 one-dose screen, 48 h; settings: 10 µM unless noted
The panel holds about 83,000 compounds, 20% with a hit somewhere; the sample as a whole holds those more often. The source made the active and inactive calls. How the source made its calls: active means growth percent below 10; inactive means the rest.
Classes used: active, inactive

compound=COc1cc(/C=C/C(=O)c2ccc(NC(=O)CSc3nnc(-c4ccc(-c5nc6ccc(Cl)cc6[nH]5)cc4)o3)cc2)cc(OC)c1OC answer_label=inactive
compound="CCCn1cnc2c(c1=N)C(c1ccc(OC)cc1)c1sc3c(CC)cccc3c1O2 (stereo not drawn)" answer_label=inactive
compound=c1cc(-c2nc3ccc4[nH]ncc4c3c3c2CCCC3)[nH]n1 answer_label=inactive
compound=CC1(C)CC[C@]2(C(=O)O)CC[C@]3(C)C(=CC[C@@H]4[C@@]5(C)CC/C(=N\OCCC#N)C(C)(C)[C@@H]5CC[C@]43C)[C@@H]2C1 answer_label=inactive
compound="Cc1ccc2sc3c(c2c1)OC(N)=C(C#N)C3c1cccc(F)c1 (stereo not drawn)" answer_label=inactive
compound=NC(N)=Nc1ccc(Oc2cccc(Nc3ccc(Br)c(C(F)(F)F)c3)c2)cc1 answer_label=active
compound=CCCCc1nc(/C=N/Nc2nc(Nc3ccccc3)nc(Nc3ccc(S(N)(=O)=O)cc3)n2)c(Cl)[nH]1 answer_label=inactive
compound="CCCn1cnc2c(c1=N)C(c1ccc(Cl)cc1)c1sc3c(CC)cccc3c1O2 (stereo not drawn)" answer_label=inactive
compound=COc1cc(/C=C2\C(=O)Nc3ccccc32)ccc1OCc1ccc(Cl)cc1 answer_label=inactive
compound=CN1CCN(Cc2ccc(NC(=O)c3cncc(C#Cc4cnc5ccc(NCCCO)nn45)c3)cc2C(F)(F)F)CC1 answer_label=active
compound=Nc1nc(-c2cccc([N+](=O)[O-])c2)c(N=Nc2ccccc2)s1 answer_label=inactive
compound=CCOC(=O)c1c(Nc2ccccc2)nn2c(-c3ccc(OC)cc3)ccnc12 answer_label=inactive
compound=O=[N+]([O-])c1cc(/C=N/Nc2nc(N/N=C/c3ccc(Cl)c([N+](=O)[O-])c3)nc(N3CCCCC3)n2)ccc1Cl answer_label=inactive
compound=O=C(NNc1nc2cc(F)cc(F)c2n2cccc12)c1cnccn1 answer_label=inactive
compound=CN(Cc1ccccc1)S(=O)(=O)/N=C1\NC(=O)NC1=C(Cl)Cl answer_label=active
compound=COC[C@]12CCC(C)(C)C[C@H]1C1=CC[C@@H]3[C@@]4(C)CCCNC(C)(C)[C@@H]4CC[C@@]3(C)[C@]1(C)CC2 answer_label=active
compound=Nc1ncc(-c2ccc(NS(=O)(=O)c3ccc(Cl)c(Cl)c3)cc2)[nH]1 answer_label=inactive
compound=NC(N)=Nc1ccc(Oc2cccc(NC(N)=Nc3ccc(Cl)c(C(F)(F)F)c3)c2)cn1 answer_label=inactive

Cited source: PubChem BioAssay (NCI)
